A collection of compounds and their measured pIC50
Target: native MDH (Sus scrofa)
Construct: soluble pig heart MDH from Roche, product #10127248001; purchased Roche 10127248001; host or cells: pig heart
Sequence (P00346 25-338): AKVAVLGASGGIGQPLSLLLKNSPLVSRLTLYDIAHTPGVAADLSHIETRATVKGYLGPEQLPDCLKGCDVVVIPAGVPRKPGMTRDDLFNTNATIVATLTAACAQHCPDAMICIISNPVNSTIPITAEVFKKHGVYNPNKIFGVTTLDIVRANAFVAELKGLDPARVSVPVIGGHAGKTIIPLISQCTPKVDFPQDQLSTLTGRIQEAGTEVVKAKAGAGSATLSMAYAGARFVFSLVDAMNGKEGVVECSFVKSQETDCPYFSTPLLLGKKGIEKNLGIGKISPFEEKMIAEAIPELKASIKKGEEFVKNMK
Assay: Counter-screen for inhibition of native MDH enzymatic activity
Assay type: biochemical, pig
Conditions: Biochemical Assay IC50 Native MDH Reporter
pIC50: −log10 of the molar value.

Example compounds with recorded pIC50:
compound	readout value
CN[C@H](CC(C)C)C(=O)N[C@H]1C(=O)N[C@@H](CC(N)=O)C(=O)N[C@H]2C(=O)N[C@H]3C(=O)N[C@H](C(=O)N[C@H](C(=O)O)c4cc(O)cc(O)c4-c4cc3ccc4O)[C@H](O)c3ccc(c(Cl)c3)Oc3cc2cc(c3O[C@@H]2O[C@H](CO)[C@@H](O)[C@H](O)[C@H]2O[C@H]2C[C@](C)(N)[C@H](O)[C@H](C)O2)Oc2ccc(cc2Cl)[C@H]1O [Vancomycin, vancomycin, reference compound]	< 4.20
O=C(Nc1ccccc1)c1ccccc1O [Compound 16, 2-Hydroxy-N-phenylbenzamide]	< 4.20

Shifting focus to the compound that follows.
Task: Report pIC50 for O=C(Nc1ccccc1)c1ccccc1 [Compound 28, N-Phenylbenzamide]
Result: < 4.20
